Entries and their Percentage (%) bound of compound to 14-3-3σ, APO 24h values follow.
# measurement_target: 14-3-3σ (Homo sapiens, UniProt P31947)
# Construct: The 14-3-3 σ isoform (full-length for mass spectrometry and fluorescence anisotropy assays, ΔC for crystallography); made in house; host or cells: E. coli Rosetta 2(DE3)pLysS, pPROEX HTb vector
# Sequence (P31947 1-248): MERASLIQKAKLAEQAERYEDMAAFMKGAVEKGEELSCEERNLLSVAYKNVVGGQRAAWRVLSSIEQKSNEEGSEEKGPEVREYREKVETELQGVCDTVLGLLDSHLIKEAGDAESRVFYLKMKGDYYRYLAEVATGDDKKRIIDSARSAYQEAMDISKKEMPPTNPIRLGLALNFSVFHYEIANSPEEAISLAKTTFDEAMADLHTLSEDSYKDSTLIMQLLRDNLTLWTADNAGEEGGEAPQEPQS
# method: Mass spectrometry dose response, compound binding to 14-3-3σ in the absence of peptide (apo)
# condition_set: 100 nM compound, 100 nM 14-3-3σ, 24h
quantity_name: Percentage (%) bound of compound to 14-3-3σ, APO 24h

[
  {
    "compound": "O=C(CCl)NCC1CCN(C(=O)C2(Oc3ccccc3)CCCC2)CC1",
    "obs_value": 2.5
  },
  {
    "compound": "NC1CCC(Nc2ccc(Cl)cc2)(C(=O)N2CCC(CNC(=O)CCl)CC2)CC1 (centres unmarked)",
    "obs_value": 9.3
  },
  {
    "compound": "O=C(CCl)NCC1CCN(C(=O)C2(Nc3ccc(Cl)cc3)CCC(F)(F)CC2)CC1",
    "obs_value": 6.2
  },
  {
    "compound": "CC1CC(Nc2ccc(Cl)cc2)(C(=O)N2CCC(CNC(=O)CCl)CC2)CC(C)O1 (centres unmarked)",
    "obs_value": 2.5
  },
  {
    "compound": "O=C(CCl)NCC1CCN(C(=O)C2(Oc3ccc(Cl)cc3)CCCCC2)CC1",
    "obs_value": 1.3
  },
  {
    "compound": "O=C(CCl)NCC1CCN(C(=O)C2(Nc3ccc(Cl)cc3)CC2)CC1",
    "obs_value": 5.9
  },
  {
    "compound": "CC(C)(Oc1ccc(Cl)cc1)C(=O)N1CCC(CCNC(=O)CCl)CC1",
    "obs_value": 1.9
  },
  {
    "compound": "O=C(CCl)NCC1CCN(C(=O)C2(Nc3ccccc3)CCCC2)CC1",
    "obs_value": 0
  }
]

###

# measurement_target: 14-3-3σ/ERα (Homo sapiens, UniProt P03372+P31947)
# Construct: The 14-3-3 σ isoform (full-length for mass spectrometry and fluorescence anisotropy assays, ΔC for crystallography); made in house; host or cells: E. coli Rosetta 2(DE3)pLysS, pPROEX HTb vector
# method: Mass spectrometry dose response, compound binding to 14-3-3σ in the presence of ERα phosphopeptide
# condition_set: 100 nM compound, 100 nM 14-3-3σ, ERα-peptide 2 µM, 16h
Assign rule met to entries whose Percentage (%) bound of compound to 14-3-3σ, ERα 16h meets or exceeds 10%; assign rule not met to the rest.

[
  {
    "molecule": "O=C(CCl)NCC1CCN(C(=O)C2(Oc3ccc(Cl)cc3)CC2)CC1",
    "measurement_target": "14-3-3σ/ERα (Homo sapiens, UniProt P03372+P31947)",
    "group_label": "rule not met"
  },
  {
    "molecule": "CC(C)(Oc1ccc(Cl)cc1)C(=O)N1CCC(CCC(=O)CCl)CC1",
    "measurement_target": "14-3-3σ/ERα (Homo sapiens, UniProt P03372+P31947)",
    "group_label": "rule met"
  },
  {
    "molecule": "CC1CC(Nc2ccc(Cl)cc2)(C(=O)NCC2CC3(CCN(C(=O)CCl)CC3)C2)CC(C)O1 (stereo not drawn)",
    "measurement_target": "14-3-3σ/ERα (Homo sapiens, UniProt P03372+P31947)",
    "group_label": "rule met"
  },
  {
    "molecule": "CC(C)(Oc1ccc(Cl)cc1)C(=O)N1CCC(CCNC(=O)CCl)CC1",
    "measurement_target": "14-3-3σ/ERα (Homo sapiens, UniProt P03372+P31947)",
    "group_label": "rule not met"
  },
  {
    "molecule": "O=C(CCl)NCCC1CCN(C(=O)C2(Nc3ccc(Cl)cc3)CCOCC2)CC1",
    "measurement_target": "14-3-3σ/ERα (Homo sapiens, UniProt P03372+P31947)",
    "group_label": "rule not met"
  },
  {
    "molecule": "CC(C)(Oc1ccc(Cl)cc1)C(=O)N1CCC(NC(=O)CCl)CC1",
    "measurement_target": "14-3-3σ/ERα (Homo sapiens, UniProt P03372+P31947)",
    "group_label": "rule not met"
  },
  {
    "molecule": "O=C(CCl)NCC1CCN(C(=O)C2(Oc3ccc(Cl)cc3)CCC(F)(F)CC2)CC1",
    "measurement_target": "14-3-3σ/ERα (Homo sapiens, UniProt P03372+P31947)",
    "group_label": "rule met"
  },
  {
    "molecule": "O=C(CCl)N1CCC2(CC1)CN(C(=O)C1(Nc3ccc(Cl)cc3)CCOCC1)C2",
    "measurement_target": "14-3-3σ/ERα (Homo sapiens, UniProt P03372+P31947)",
    "group_label": "rule met"
  },
  {
    "molecule": "O=C(CCl)NCC1CCN(C(=O)C2(Nc3ccc(Cl)cc3)CC2)CC1",
    "measurement_target": "14-3-3σ/ERα (Homo sapiens, UniProt P03372+P31947)",
    "group_label": "rule not met"
  },
  {
    "molecule": "O=C(CCl)NCCCC1CCN(C(=O)C2(Nc3ccc(Cl)cc3)CCNCC2)CC1",
    "measurement_target": "14-3-3σ/ERα (Homo sapiens, UniProt P03372+P31947)",
    "group_label": "rule met"
  },
  {
    "molecule": "O=C(CCl)NCCC1CCN(C(=O)C2(Nc3ccc(Cl)cc3)CCNCC2)CC1",
    "measurement_target": "14-3-3σ/ERα (Homo sapiens, UniProt P03372+P31947)",
    "group_label": "rule met"
  },
  {
    "molecule": "O=C(CCl)NCC1CCN(C(=O)C2(Nc3ccc(Cl)cc3)CCNCC2)CC1",
    "measurement_target": "14-3-3σ/ERα (Homo sapiens, UniProt P03372+P31947)",
    "group_label": "rule met"
  },
  {
    "molecule": "CC1CC(Nc2ccc(Cl)cc2)(C(=O)N2CCC(CNC(=O)CCl)CC2)CC(C)O1 (stereo not drawn)",
    "measurement_target": "14-3-3σ/ERα (Homo sapiens, UniProt P03372+P31947)",
    "group_label": "rule met"
  },
  {
    "molecule": "CC1(C)CC(Nc2ccc(Cl)cc2)(C(=O)N2CCC(CNC(=O)CCl)CC2)CC(C)(C)O1",
    "measurement_target": "14-3-3σ/ERα (Homo sapiens, UniProt P03372+P31947)",
    "group_label": "rule not met"
  },
  {
    "molecule": "O=C(CCl)NCC1CCN(C(=O)C2(Nc3ccc(Cl)cc3)CCCC2)CC1",
    "measurement_target": "14-3-3σ/ERα (Homo sapiens, UniProt P03372+P31947)",
    "group_label": "rule met"
  },
  {
    "molecule": "O=C(CCl)N1CCC2(CC1)CC(CNC(=O)C1(Nc3ccc(Cl)cc3)CCOCC1)C2",
    "measurement_target": "14-3-3σ/ERα (Homo sapiens, UniProt P03372+P31947)",
    "group_label": "rule met"
  },
  {
    "molecule": "O=C(CCl)N1CCC2(CC1)CC(NC(=O)C1(Nc3ccc(Cl)cc3)CCOCC1)C2",
    "measurement_target": "14-3-3σ/ERα (Homo sapiens, UniProt P03372+P31947)",
    "group_label": "rule met"
  },
  {
    "molecule": "O=C(CCl)N1CCC2(CC1)CCN(C(=O)C1(Nc3ccc(Cl)cc3)CCOCC1)CC2",
    "measurement_target": "14-3-3σ/ERα (Homo sapiens, UniProt P03372+P31947)",
    "group_label": "rule met"
  },
  {
    "molecule": "CC(C)(Nc1ccccc1)C(=O)N1CCC(CNC(=O)CCl)CC1",
    "measurement_target": "14-3-3σ/ERα (Homo sapiens, UniProt P03372+P31947)",
    "group_label": "rule not met"
  },
  {
    "molecule": "O=C(CCl)NCC1CCN(C(=O)C2(Oc3ccc(Cl)cc3)CCOCC2)CC1",
    "measurement_target": "14-3-3σ/ERα (Homo sapiens, UniProt P03372+P31947)",
    "group_label": "rule not met"
  },
  {
    "molecule": "C=CS(=O)(=O)NCC1CCN(C(=O)C(C)(C)Oc2ccc(Cl)cc2)CC1",
    "measurement_target": "14-3-3σ/ERα (Homo sapiens, UniProt P03372+P31947)",
    "group_label": "rule met"
  }
]
